Biological target: HER4 (Homo sapiens)
Construct: purchased Reaction Biology Corporation
Sequence (Q15303 26-1308): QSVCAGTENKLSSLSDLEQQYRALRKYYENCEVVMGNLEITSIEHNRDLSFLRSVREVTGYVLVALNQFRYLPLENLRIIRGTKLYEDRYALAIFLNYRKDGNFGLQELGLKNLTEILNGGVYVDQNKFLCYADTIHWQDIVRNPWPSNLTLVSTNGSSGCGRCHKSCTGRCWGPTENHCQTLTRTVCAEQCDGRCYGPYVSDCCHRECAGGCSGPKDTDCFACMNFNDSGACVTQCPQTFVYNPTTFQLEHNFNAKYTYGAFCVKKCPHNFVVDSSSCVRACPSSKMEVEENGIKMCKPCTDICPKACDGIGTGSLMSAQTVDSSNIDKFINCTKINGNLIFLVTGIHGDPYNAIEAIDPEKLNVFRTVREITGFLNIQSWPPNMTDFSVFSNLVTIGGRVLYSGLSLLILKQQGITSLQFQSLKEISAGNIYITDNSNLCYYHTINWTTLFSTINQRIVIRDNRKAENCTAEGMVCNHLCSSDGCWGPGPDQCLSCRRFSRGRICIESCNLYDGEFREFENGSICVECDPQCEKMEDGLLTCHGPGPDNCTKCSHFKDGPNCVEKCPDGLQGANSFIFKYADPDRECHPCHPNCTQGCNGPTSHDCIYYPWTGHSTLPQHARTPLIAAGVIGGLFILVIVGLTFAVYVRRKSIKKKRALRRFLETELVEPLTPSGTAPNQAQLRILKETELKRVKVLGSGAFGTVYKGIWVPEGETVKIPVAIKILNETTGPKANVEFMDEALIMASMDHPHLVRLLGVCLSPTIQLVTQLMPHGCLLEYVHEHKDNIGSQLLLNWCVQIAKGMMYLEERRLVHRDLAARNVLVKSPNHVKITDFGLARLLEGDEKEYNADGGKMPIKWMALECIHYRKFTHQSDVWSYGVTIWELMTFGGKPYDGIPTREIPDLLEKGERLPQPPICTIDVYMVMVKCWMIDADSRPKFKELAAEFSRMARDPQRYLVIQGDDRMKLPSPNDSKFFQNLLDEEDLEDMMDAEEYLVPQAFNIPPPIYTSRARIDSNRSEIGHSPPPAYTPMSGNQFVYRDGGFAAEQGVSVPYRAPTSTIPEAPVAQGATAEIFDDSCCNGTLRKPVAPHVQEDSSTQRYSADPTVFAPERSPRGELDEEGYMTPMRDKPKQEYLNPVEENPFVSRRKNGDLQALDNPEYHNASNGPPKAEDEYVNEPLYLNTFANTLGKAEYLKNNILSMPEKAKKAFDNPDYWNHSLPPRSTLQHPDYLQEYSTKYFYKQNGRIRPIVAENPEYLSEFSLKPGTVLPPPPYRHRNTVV
Assay: Radiometric kinase assay (Reaction Biology HotSpot)
Format: biochemical
Conditions: 200 nM compound, duplicate mean, [ATP] = 10 μM; read-out: Residual Activity @ 200 nM, HER4
quantity-name: remaining activity at 0.2 µM (%)

compound: C=CC(=O)Nc1cccc(-c2c[nH]c3ncc(C(N)=O)cc23)c1 [Compound 10a]
value-unit: %
numeric-value: 66.6

a. C=CC(=O)Nc1cccc(-c2c[nH]c3ncccc23)c1 [Compound 9a]
b. C=CC(=O)Nc1cccc(-c2c[nH]c3ncc(NC(=O)c4cccs4)cc23)c1 [Compound 12c]
c. CCC(=O)Nc1cccc(-c2c[nH]c3ncc(NC(=O)C4CCCC4)cc23)c1 [Compound 12b]
Challenge: // sort entries: remaining activity at 0.2 µM, high to low Labels, requested order.
Response given: c, a, b

Ref: paper PMC7730235
